System: MCF-7 cell line
Assay Notes: MTT antiproliferative test, MCF-7
Format: cell-based
Condition Details: Homo sapiens, MCF7, read-out: IC50 (n = 3), antiproliferative effect vs MCF-7
Measured Parameter: IC50 (µM)
// return numeric value only (unit: µM, not printed)

- Compound: "N=c1c2sc3sc4c(=N)n(-c5ccccc5)c(=O)[nH]c4c3c2[nH]c(=O)n1-c1ccccc1"
  IC50 [µM]: 17.3
- Compound: "Nc1c(-c2nnn[nH]2)sc2sc(-c3nnn[nH]3)c(N)c12"
  IC50 [µM]: 17.3
- Compound: "C#Cc1cccc(Nc2ncnc3cc(OCCOC)c(OCCOC)cc23)c1 [erlotinib, reference compound]"
  IC50 [µM]: 21.8

Okay, next one:
IC50 for N#Cc1sc2sc(C#N)c(N)c2c1N ?
8.57

---

The next entries give measured IC50 for EGFR^WT (Homo sapiens, UniProt P00533).
// return numeric value only (unit: µM, not printed)

Field: example entries. Status: answers known.
- Structure Smiles: "Nc1c(-c2nnn[nH]2)sc2sc(-c3nnn[nH]3)c(N)c12"
  Measurement: 3.27
- Structure Smiles: "N=c1c2sc3sc4c(=N)n(-c5ccccc5)c(=O)[nH]c4c3c2[nH]c(=O)n1-c1ccccc1"
  Measurement: 2.02

Okay, next one:
What measured IC50 is associated with N#Cc1sc2sc(C#N)c(N)c2c1N on EGFR^WT (Homo sapiens, UniProt P00533)?
0.29
